Test system: COLO 205 colon
Test: NCI tumour cell line growth inhibition, 48 h
readout.label: TGI

Prompt line: Sample O=C(O)C1CCC(=O)N1C(=O)COc1cc(Cl)c(Cl)cc1Cl (centres undefined) — what was its TGI?
Response line: > 100 µM

Prompt line: What does the data say about its TGI? Entry: O=C1OC(=O)c2c1nc1ccccc1c2-c1ccccc1
Response line: > 100 µM

Prompt line: Quick one: TGI of COCOC1CCCC[C@@]1(OCCOCCO[C@@]1(c2ccccc2)CCCC[C@H]1OCOC)c1ccccc1 (some centres undefined) ?
Response line: > 100 µM

Prompt line: Could you share which TGI value was measured for CCOC(=O)C1C(c2ccc(Br)cc2)N(Cc2ccccc2)C(c2ccc(Br)cc2)C(C(=O)OC)S1(=O)=O (centres undefined) ?
Response line: > 100 µM

Prompt line: Quick check: TGI of C[n+]1cn(CC(=O)c2ccccc2)c(C(N)=O)c1N ?
Response line: > 100 µM

Prompt line: Give the measured TGI of O=[N+]([O-])c1cccnc1S(=O)(=O)c1ccccc1 .
Response line: 11 µM

Prompt line: // TGI lookup, key: CC1CC(c2ccccc2)=Nc2ccccc2S1 (centres undefined)
Response line: > 100 µM

Prompt line: So what's the measured TGI for this one? S=C(Sc1ccc(Cl)cc1)Sc1ccc(Cl)cc1
Response line: 5.5 µM

Prompt line: Any idea what its TGI is? The molecule is O=C(/C=C\c1ccccc1)Oc1ccc(/C=C2\CCC/C(=C\c3ccc(OC(=O)/C=C\c4ccccc4)cc3)C2=O)cc1
Response line: > 100 µM

Prompt line: Endpoint output: TGI of COc1ccc(N(CC(=O)O)N=O)cc1 . Value?
Response line: > 100 µM

Prompt line: What TGI value was documented for this molecule, O=c1c2[nH]cnc2n(-c2ccccc2)c(=S)n1-c1ccccc1 ?
Response line: > 100 µM

Prompt line: Recorded TGI for Nc1ncnc2c1c(-c1ccc(Oc3ccccc3)cc1)nn2CC1SSCC1O (centres undefined) , please?
Response line: 5.5 µM

Prompt line: So what's the measured TGI for this one? C1CN2CCO[SiH](O1)OCC2
Response line: > 100 µM

Prompt line: Any idea what TGI was measured for O=C(O)c1ccccc1NCn1nc(-c2ccccc2O)oc1=S ?
Response line: > 100 µM

Prompt line: So what's the measured TGI for this one? Cc1ccc(S(=O)(=O)OCCN(CCOS(=O)(=O)c2ccc(C)cc2)c2ccc(C=O)cc2)cc1
Response line: > 100 µM

Prompt line: Which TGI value belongs to O=C1Nc2noc(=O)nc2NO1 ?
Response line: > 200 µM

Prompt line: Record request: TGI value, item CCOC(=O)CNC(=O)c1[nH]cnc1/N=N/N(C)C
Response line: > 100 µM

Prompt line: Returns the measured TGI for the input molecule. Input: CCCCCCCCCCCCCCCCNc1nc(=O)n(C2OC(C)C(O)C2O)cc1F (centres undefined)
Response line: 58.7 µM

Prompt line: // query TGI value for entry O=C1C2C(C(=O)N1Cc1ccccc1)N(Cc1ccccc1)C(=O)N2Cc1ccccc1 (centres undefined)
Response line: > 100 µM

Prompt line: What measured TGI goes with CCCC(O)[C@@]1(CC)CC(C)C(O)(C2(C)C[C@H](C)[C@@H](C(CC)C(=O)C(C)[C@@H](O)[C@H](C)C3OC(O)(C(CC)C(=O)O)[C@@H](C)C(O)C3CC)O2)O1 (some centres undefined) ?
Response line: 0.83 µM

Prompt line: Name the recorded TGI for O=S(Nc1ccccc1)c1ccc(Cl)cc1 (centres undefined) .
Response line: > 100 µM

Prompt line: Report TGI for Cc1ccc(-n2c3nc(=O)n(C)c(=O)c-3nc3ccccc32)c(C)c1 please.
Response line: 13 µM

Prompt line: Query: TGI; subject: CCCCCCCCCCCC1=C(O)C(=O)C(CC2=C(O)C(=O)C(CCCCCCCCCCC)=C(O)C2=O)=C(O)C1=O
Response line: > 100 µM

Prompt line: Need TGI, item Cc1cc(OC2OC(CO)C(O)C(O)C2O)ccc1O (centres undefined)
Response line: > 100 µM

Prompt line: What does the record list as TGI for CC(C)(C)C1=NO[C@H]2[C@@H](NC(=O)c3ccccc3)CC[C@@H]12 ?
Response line: > 100 µM

Prompt line: What does the record list as TGI for COc1ccc(C2C(=O)c3ccc(OC)cc3OC2c2cccnc2)cc1 (centres undefined) ?
Response line: > 100 µM

Prompt line: Find the recorded TGI belonging to C[C@H]1CCC/C=C/[C@@H]2C[C@H](OC3OC(CO)C(O)C(O)C3O)C[C@H]2[C@H](O)/C=C/C(=O)O1 (some centres undefined) and report it.
Response line: 31.9 µM

Prompt line: TGI for OCCNc1nc2ccccc2c2[nH]c3ccccc3c12 ?
Response line: 1.37 µM

Prompt line: Entry C/C(=N\NC(=S)N1CCC1)c1ccccn1 has what TGI?
Response line: > 100 µM
